# System name: urokinase (UK) (Homo sapiens)
# Assay method text: Measuring method of UK blocking rate (S2444 substrate, absorbance 405 nm)
# Format: biochemical
# Assay conditions: ion concentration 100 ppm; Tris-HCl buffer pH7.5
Readout type: UK blocking rate (%)
Numeric answer only, unit % assumed.

q: If you can, please state the reported UK blocking rate (%) value of [K+] [K^+] .
a: 0

q: Now give it for [Zr+4] [Zr^4+] too.
a: 45

q: Now give it for [Al+3] [Al^3+] too.
a: 16

q: Now give it for [Ni+2] [Ni^2+] too.
a: 30

q: Now give it for [Zn+2] [Zn^2+, zinc ion] too.
a: 52

q: Now give it for [Mn+2] [Mn^2+] too.
a: 0

q: Now give it for [Ca+2] [Ca^2+] too.
a: 0

q: Now give it for [Co+2] [Co^2+] too.
a: 27

q: Now give it for [Ce+3] [Ce^3+] too.
a: 5

q: Now give it for [Li+] [Li^+] too.
a: 0

q: Now give it for [Na+] [Na^+] too.
a: 0

q: Now give it for [Mg+2] [Mg^2+] too.
a: 0

q: Now give it for [Cu+2] [Cu^2+] too.
a: 36

q: Now give it for [Ba+2] [Ba^2+] too.
a: 0

The values you see were collected from patent US8062671B2.
